Target: Human Norepinephrine Transporter (hNET) (Homo sapiens, UniProt P23975)
Construct: expressed in transfected cells; host or cells: HEK-293 (Clone: HEK-hNET #2), membrane preparation
Sequence (P23975 whole entry): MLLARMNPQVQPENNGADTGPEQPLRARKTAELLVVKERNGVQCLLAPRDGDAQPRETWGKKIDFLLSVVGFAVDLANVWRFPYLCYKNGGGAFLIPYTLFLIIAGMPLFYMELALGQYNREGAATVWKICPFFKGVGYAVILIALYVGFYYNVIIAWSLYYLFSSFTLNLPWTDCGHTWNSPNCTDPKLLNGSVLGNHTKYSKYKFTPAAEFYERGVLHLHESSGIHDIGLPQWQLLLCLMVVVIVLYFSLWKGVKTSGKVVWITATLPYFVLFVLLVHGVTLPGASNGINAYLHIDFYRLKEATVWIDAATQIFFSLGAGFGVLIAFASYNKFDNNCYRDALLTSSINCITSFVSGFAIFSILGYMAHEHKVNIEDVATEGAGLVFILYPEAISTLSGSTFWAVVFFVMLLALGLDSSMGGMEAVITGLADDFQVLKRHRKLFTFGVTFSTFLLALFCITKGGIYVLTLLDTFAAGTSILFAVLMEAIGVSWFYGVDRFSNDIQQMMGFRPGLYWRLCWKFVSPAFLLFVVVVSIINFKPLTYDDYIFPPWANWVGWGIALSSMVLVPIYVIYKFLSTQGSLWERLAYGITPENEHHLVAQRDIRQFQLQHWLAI
Test: hNET scintillation proximity assay (SPA), competition with [3H]-Nisoxetine
Type: binding
Details: pKi, membranes of HEK-293 cells expressing recombinant hNET, read-out: NET (converted)

molecule | output_unit | Ki
Fc1ccccc1[C@@H]1OCCNC[C@@H]1c1ccccc1 | nM | 275
Clc1ccccc1C1CCNCCN1c1ccccc1 (centres unmarked) | nM | 219
c1ccc(C2CCNCCN2c2ccccc2)cc1 (centres unmarked) [Compound 12, 1,7-Diphenyl-[1,4]diazepane] | nM | 335
c1ccc([C@H]2CNCCO[C@@H]2c2ccccc2)cc1 [Compound 5, (6S,7S)-6,7-Diphenyl-[1,4]oxazepane] | nM | 133
Clc1ccc(C2CNCCCN2c2ccccc2)cc1 (centres unmarked) | nM | 263
